assay: self-splicing fitness, log relative to wild type (ln ratio); higher = more splicing; Tetrahymena group I intron in knt gene, E. coli kanamycin selection, DiMSum; sequences stand for … in CUCUCU…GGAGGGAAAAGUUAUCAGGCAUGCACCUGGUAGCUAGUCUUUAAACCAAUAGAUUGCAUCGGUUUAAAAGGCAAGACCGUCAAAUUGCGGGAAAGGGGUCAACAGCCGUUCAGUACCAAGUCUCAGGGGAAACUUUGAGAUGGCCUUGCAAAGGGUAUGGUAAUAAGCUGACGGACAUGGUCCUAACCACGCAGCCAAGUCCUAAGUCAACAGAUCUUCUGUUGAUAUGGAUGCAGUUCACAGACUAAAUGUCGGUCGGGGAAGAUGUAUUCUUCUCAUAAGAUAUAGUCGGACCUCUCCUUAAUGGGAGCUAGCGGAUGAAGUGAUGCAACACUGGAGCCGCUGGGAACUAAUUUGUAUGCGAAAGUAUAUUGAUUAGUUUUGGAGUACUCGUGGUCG; conditions: 30 °C;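 note: selection with 25 µg/mL kanamycin versus none on LB agar overnight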
measuredEndpoint: self-splicing fitness (ln)
Lab note: record the figure alone, no unit after it.

Provide self-splicing fitness (ln) value for the following sequence: UACUAGCAAUAUUACGAUGC
-4.22

Tell us which self-splicing fitness (ln) value is on record for CAGUAGCAAUAUUACGCAUA
-2.04

Give the reported value of self-splicing fitness (ln) for this record: AAGGAGCAAUAUUACGACAA
-2.38

Return self-splicing fitness (ln) for the following sequence: CUUCAGCAAUAUUACGCGGC
-3.24

Return self-splicing fitness (ln) for the following sequence: UAGCAGCAAUAUUACGAGAA
-2.19

Quote self-splicing fitness (ln) reported for AUAAAGCAAUAUUACGAUCU please.
0.387

Let me know recorded self-splicing fitness (ln) for CUUCAGCAAUAUUACGGCUC , thanks.
-3.8

Give me measured self-splicing fitness (ln), please, for this sequence: AAUGAGCAAUAUUACGAACG
-2.46

# return recorded self-splicing fitness (ln) for input CAACAGCAAUAUUACGGUGU
-3.34

Consider the sequence GGUAAGCAAUAUUACGCCAU and give its recorded self-splicing fitness (ln).
-2.39

Return self-splicing fitness (ln) (reported value) for this sequence: CAGAAGCAAUAUUACGUCGG
-1.61

Recall and state the measured self-splicing fitness (ln) for AGGGAGCAAUAUUACGUCAU .
-3.06

In one line, give reported self-splicing fitness (ln) of the entry GGUGAGCAAUAUUACGUUCU .
0.501

Tell me its self-splicing fitness (ln) given GCAAAGCAAUAUUACGAUCC as the entry.
-0.0105

Give the reported self-splicing fitness (ln) for this sequence. UGGCAGCAAUAUUACGCCCA
-1.66

Tell me measured self-splicing fitness (ln) for AUUCAGCAAUAUUACGUAGC please.
-3.44

Check the records and state self-splicing fitness (ln) for AUAUAGCAAUAUUACGCAGG
-3.74

Complete the entry with self-splicing fitness (ln) for GUAUAGCAAUAUUACGCAUC
-2.15

Recall and state the measured self-splicing fitness (ln) for AAUGAGCAAUAUUACGUGCU .
-3.93

Input UAACAGCAAUAUUACGAGCG , output reported self-splicing fitness (ln).
-0.617

Please give measured self-splicing fitness (ln) of the following entry: AGUGAGCAAUAUUACGUCUU
-1.07

Identify the reported self-splicing fitness (ln) for the following entry. CUGCAGCAAUAUUACGGUGU
-4.57
